system: JIMT-1; assay: In vitro cytotoxicity (cell proliferation inhibition), SRB dye or Cell titer glo; format: cell-based, human; conditions: JIMT-1, 144 hours
Square brackets hold non-standard residues; d marks the D form. Peptide text beside a SMILES is read from it. * marks the point of attachment. Dolaproine = CO[C@@H]([C@@H]1CCCN1)[C@@H](C)C(=O)O; Dil = CC[C@H](C)[C@H](NC)[C@@H](CC(=O)O)OC; X1 = C[C@@H](N*)[C@@H](O)c1ccccc1; NMeV = CN[C@H](C(=O)O)C(C)C
recorded.endpoint: CC50
Units required after the number.

Could you tell me which CC50 is on file for CC[C@H](C)[C@@H]([C@@H](CC(=O)N1CCC[C@H]1[C@H](OC)[C@@H](C)C(=O)N[C@H](C)[C@@H](O)c1ccccc1)OC)N(C)C(=O)[C@@H](NC(=O)[C@@H](NC)C(C)C)C(C)C [MMAE, monomethyl auristatin E] (H-[NMeV]V[Dil][Dolaproine]-X1) ? 0.154 nM

###

system: OVCAR-3; experiment: In vitro cytotoxicity (cell proliferation inhibition), SRB dye or Cell titer glo; format: cell-based, human; settings: OVCAR-3, 144 hours
Square brackets hold non-standard residues; d marks the D form. Peptide text beside a SMILES is read from it. * marks the point of attachment. Dolaproine = CO[C@@H]([C@@H]1CCCN1)[C@@H](C)C(=O)O; Dil = CC[C@H](C)[C@H](NC)[C@@H](CC(=O)O)OC; X1 = C[C@@H](N*)[C@@H](O)c1ccccc1; NMeV = CN[C@H](C(=O)O)C(C)C
recorded.endpoint: CC50 (nM)
Quick reminder: number only, in nM, skip the unit.

Could you tell me which CC50 is on file for CC[C@H](C)[C@@H]([C@@H](CC(=O)N1CCC[C@H]1[C@H](OC)[C@@H](C)C(=O)N[C@H](C)[C@@H](O)c1ccccc1)OC)N(C)C(=O)[C@@H](NC(=O)[C@@H](NC)C(C)C)C(C)C [MMAE, monomethyl auristatin E] (H-[NMeV]V[Dil][Dolaproine]-X1) ? 0.304

###

Record form. Attribute: CC50. Fill in for each entry.
test system: DLD-1; assay: In vitro cytotoxicity (cell proliferation inhibition), SRB dye or Cell titer glo; assay type: cell-based, human; details: DLD-1, 144 hours
Square brackets hold non-standard residues; d marks the D form. Peptide text beside a SMILES is read from it. * marks the point of attachment. Dolaproine = CO[C@@H]([C@@H]1CCCN1)[C@@H](C)C(=O)O; Dil = CC[C@H](C)[C@H](NC)[C@@H](CC(=O)O)OC; X1 = C[C@@H](N*)[C@@H](O)c1ccccc1; NMeV = CN[C@H](C(=O)O)C(C)C
Quick reminder: number only, in nM, skip the unit.

Could you tell me which CC50 is on file for C=C1C[C@H]2C=Nc3cc(OCCCCCOc4cc5c(cc4OC)C(=O)N4CC(=C)C[C@H]4C=N5)c(OC)cc3C(=O)N2C1 ? 0.05

Could you tell me which CC50 is on file for CC[C@H](C)[C@@H]([C@@H](CC(=O)N1CCC[C@H]1[C@H](OC)[C@@H](C)C(=O)N[C@H](C)[C@@H](O)c1ccccc1)OC)N(C)C(=O)[C@@H](NC(=O)[C@@H](NC)C(C)C)C(C)C [MMAE, monomethyl auristatin E] (H-[NMeV]V[Dil][Dolaproine]-X1) ? 8.88

The values you see were collected from patent US20250242043A1.
